Recorded residual activity, one value per entry.
- study_system: MAPK14 (human) (UniProt Q16539)
- Sequence (Q16539 whole entry, looked up): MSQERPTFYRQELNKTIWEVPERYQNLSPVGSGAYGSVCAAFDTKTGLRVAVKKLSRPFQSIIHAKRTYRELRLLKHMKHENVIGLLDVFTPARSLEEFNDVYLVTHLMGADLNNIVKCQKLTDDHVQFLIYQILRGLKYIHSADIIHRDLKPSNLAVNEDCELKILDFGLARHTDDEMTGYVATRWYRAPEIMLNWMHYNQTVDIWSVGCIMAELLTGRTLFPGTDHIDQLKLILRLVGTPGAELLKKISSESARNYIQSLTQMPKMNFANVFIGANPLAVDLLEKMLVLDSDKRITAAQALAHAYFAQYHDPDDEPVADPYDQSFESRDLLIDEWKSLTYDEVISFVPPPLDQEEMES
- assay_summary: radiometric filter-binding kinase assay, Kinase HotSpot
- experimental_setup: compound 0.5 µM; ATP 10 µM
Give the value in % but do not write % after it.

INSERT INTO results (smiles_notation, measurement) VALUES
  ('O=C1NC(=O)c2cc(Nc3ccc(F)cc3)c(Nc3ccc(F)cc3)cc21', 88.3),
  ('COc1cc2ncnc(Nc3ccc(O)c(Br)c3)c2cc1OC', 87.3),
  ('N#C/C(=C1/Nc2ccccc2S1)c1ccnc(NCCc2cccnc2)n1', 89.1);

Would you kindly look at the next entry?
Record summary for `O=C(c1ccccc1)c1ccc(N2CCOCC2)cc1O` : reported residual activity = 96.3
